# Test Details: Differential scanning fluorimetry (DSF) melting temperature of Sgf29 and variants
# Format: physicochemical, Homo sapiens
# Condition Details: SYPRO-Orange fluorescence, 25 mM TRIS pH 7.5, 50 mM NaCl, 1 mM DTT, 2.5 μl of 25 μM protein in 25 μl, 20–95°C, 1°C min^-1, ± SD, measured in triplicate
Experimental Readout: Tm (°C)
Report the figure in °C without appending any unit label.

Problem: Look up Tm for this molecule: WT: Wild-type Sgf29 reader domain protein (Homo sapiens, residues 115–293) (protein, left off: 6xHis, end not stated, cleaved) RRGVLMTLLQQSAMTLPLWIGKPGDKPPPLCGAIPASGDYVARPGDKVAARVKAVDGDEQWILAEVVSYSHATNKYEVDDIDEEGKERHTLSRRRVIPLPQWKANPETDPEALFQKEQLVLALYPQTTCFYRALIHAPPQRPQDDYSVLFEDTSYADGYSPPLNVAQRYVVACKEPKKK
Result: 57.8
